experiment: in vitro; details: human
PARAMETER: CC50 at 5 days

[
  {
    "COMPOUND": "CCOC(=O)C(C)OP(=O)(COc1ccc(CC(NC(=O)OC2COC3OCCC23)C(O)CN(CC(C)C)S(=O)(=O)c2ccc(OC)cc2)cc1)Oc1ccccc1 (stereo not shown) [drawing 658 R1=OPh R2=Lac-Et]",
    "PARAMETER": "CC50 at 5 days",
    "OBSERVED VALUE": "5 to 50 µM"
  }
]

====

molecular target: 84V90M (Human immunodeficiency virus type 1 group M subtype B, UniProt P04585, I572V/L578M); assay: Enzymatic assay, IC50 against 84V90M mutant protease; type: biochemical, HIV-1
Below, each of the compounds is paired with its reported IC50 value.

[
  {
    "COMPOUND": "N#Cc1cc(CN2C(=O)N(Cc3cccc(OCc4ccccc4)c3)[C@H](Cc3ccccc3)[C@H](O)[C@@H](O)[C@H]2Cc2ccccc2)ccc1F",
    "UNIT OF MEASUREMENT": "nM",
    "IC50": 114
  },
  {
    "COMPOUND": "CCOP(=O)(CNC(=O)Oc1ccc(C[C@@H]2[C@H](O)[C@@H](O)[C@@H](Cc3ccc(OC)cc3)N(Cc3cccc(N)c3)C(=O)N2Cc2cccc(N)c2)cc1)OCC",
    "UNIT OF MEASUREMENT": "nM",
    "IC50": 85
  },
  {
    "COMPOUND": "COc1ccc(CN2C(=O)N(Cc3ccc(O)cc3)[C@H](Cc3ccccc3)[C@H](O)[C@@H](O)[C@H]2Cc2ccccc2)cc1C#N",
    "UNIT OF MEASUREMENT": "nM",
    "IC50": 348
  },
  {
    "COMPOUND": "CCOC(=O)C(C)OP(=O)(COc1ccc(C[C@@H]2[C@H](O)[C@@H](O)[C@@H](Cc3ccccc3)N(Cc3ccccc3)C(=O)N2Cc2ccccc2)cc1)Oc1ccccc1 (stereo partly drawn)",
    "UNIT OF MEASUREMENT": "nM",
    "IC50": 56
  },
  {
    "COMPOUND": "CCOC(=O)C(C)NP(=O)(COc1ccc(C[C@@H]2[C@H](O)[C@@H](O)[C@@H](Cc3ccccc3)N(Cc3ccccc3)C(=O)N2Cc2ccccc2)cc1)Oc1ccccc1 (stereo partly drawn)",
    "UNIT OF MEASUREMENT": "nM",
    "IC50": 50
  },
  {
    "COMPOUND": "O=C1N(Cc2ccccc2)[C@H](Cc2ccccc2)[C@H](O)[C@@H](O)[C@@H](Cc2ccccc2)N1Cc1ccc2[nH]nc(O)c2c1",
    "UNIT OF MEASUREMENT": "nM",
    "IC50": 85
  }
]
